System: Foxtail, Giant (giant foxtail, Setaria faberi)
Test: Test A1 postemergence, Foxtail, Giant
Assay type: in vivo
Conditions: Postemergence, 125 g ai/ha; 0 to 100 scale
outcome_measure: Plant response rating, Foxtail, Giant

Worked set:
>>> result("Cc1cc(C)c(N(COC(=O)C(C)(C)C)S(=O)(=O)C(F)(F)F)cc1C(=O)N1CCC(C)CC1")
50
>>> result("Cc1c(NS(=O)(=O)C(F)(F)F)cc(C(=O)N(C)C)c(C)c1C")
70
>>> result("CCOC(=O)N(c1cc(C(=O)N2CCOCC2)c(C)c(C)c1C)S(=O)(=O)C(F)(F)F")
90

[ask] Quick one: Plant response rating, Foxtail, Giant of Cc1c(NS(=O)(=O)C(F)(F)F)cc(C(=O)N2CCC(C)CC2)c(C)c1C ?
[reply] 80

Provenance of the data: patent US20230278972A1
